# ASSAY_PROCEDURE: chemical genetic growth profiling, strain panel (AID 1159580);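 further: tested at 20 µM; growth read once vehicle control cultures reached saturation at 30 °C; 1 = growth at the plate median or of vehicle wells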
# CONDITION_NOTES: S. cerevisiae deletion strains, growth OD, locus YGL167C, strain pmr1
The whole screen tested about 5,500 compounds, of which about 2,000 (36%) were called active. Not shown: some 18% with an inconclusive outcome. No stated cut-off is given here; in the data, active means normalized growth mostly below about 0.91 (no sharp cut-off); inconclusive means no clear call, values can overlap the other calls; inactive means mostly above about 0.92. Some of the results follow.
Outcomes: active, inactive

COMPOUND	CAT
C[C@]12CCC3c4ccc(O)cc4CCC3C1CC[C@@H]2O (stereo partly specified)	inactive
CC(=O)Oc1ccc2c(c1C(C)C)CCC1C(C)(C)CCC[C@]21C (stereo partly specified)	inactive
NC(=NCCC[C@H](N)C(=O)O)N[N+](=O)[O-]	inactive
O=c1ccc2cc(OC3OC(CO)C(O)C(O)C3O)c(O)cc2o1 (stereo unspecified)	inactive
COC(=O)[C@]1(C)CCC[C@]2(C)c3ccc(C(C)C)cc3C(=O)CC12 (stereo partly specified)	inactive
CC(C)(C)NCC(O)c1cc(O)cc(O)c1 (stereo unspecified)	inactive
CCC1OC(=O)[C@H](C)C(=O)[C@H](C)[C@@H](OC2O[C@H](C)C[C@H](N(C)C)[C@H]2O)[C@](C)(OC)C2(CCCn3cnc(-c4cccnc4)c3)C[C@@H](C)C(=O)[C@H](C)[C@H]3N(C2)C(=O)O[C@]13C (stereo partly specified)	inactive
CC(C)c1c(O)ccc2c1CCC1C(C)(C)CCC[C@]21C (stereo partly specified)	active
CCC(c1ccc(O)cc1)C(CC)c1ccc(O)cc1 (stereo unspecified)	inactive
CCCCCC(=O)Cc1cc(O)cc(O)c1C(=O)Oc1cc(CC(=O)CCCCC)c(C(=O)O)c(OC)c1	active
COc1cc(O)c2c(=O)c(O)c(-c3ccc(O)c(O)c3)oc2c1	inactive
CC(CC(C(N)=O)(c1ccccc1)c1ccccc1)N(C)C (stereo unspecified)	inactive
COc1ccc2c(c1)CCC1C2CC[C@@]2(C)C1CC[C@@H]2O (stereo partly specified)	inactive
CCOCN(C(=O)CCl)c1c(C)cccc1CC	inactive
Cc1cc(C2CCCCC2)n(O)c(=O)c1	active
NS(=O)(=O)c1cc(C2(O)NC(=O)c3ccccc32)ccc1Cl (stereo unspecified)	inactive
CCc1cc(C(N)=S)ccn1	inactive
C[C@]12CCC3c4ccc(O)cc4CCC3C1C[C@@H](O)[C@@H]2O (stereo partly specified)	inactive
COc1ccc(-c2oc3c(CC=C(C)C)c(O[C@@H]4O[C@H](CO)[C@@H](O)[C@H](O)[C@H]4O)cc(O)c3c(=O)c2O[C@@H]2O[C@@H](C)[C@H](O)[C@@H](O)[C@H]2O)cc1	inactive
CC(C)c1c(O)ccc2c1CCC1[C@@](C)(C=O)CCC[C@]21C (stereo partly specified)	inactive
CC[n+]1c(-c2ccccc2)c2cc(N)ccc2c2ccc(N)cc21	inactive

----------
# ASSAY_PROCEDURE: chemical genetic growth profiling, strain panel (AID 1159580);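 further: tested at 20 µM; growth read once vehicle control cultures reached saturation at 30 °C; 1 = growth at the plate median or of vehicle wells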
# CONDITION_NOTES: S. cerevisiae deletion strains, growth OD, locus YHR027C, strain rpn1, stronger effect = lower value
In all, about 5,500 compounds went through this assay and about 2,000 (36%) were called active. Roughly 18% stayed inconclusive and do not appear here. The list shows a part of the results.
Quick reference: normalized growth of the listed items.

COMPOUND	normalized growth
O=c1c(O)c(-c2ccc(O)c(O)c2)oc2cc(O)cc(O)c12	0.807
CC1(C)C=CC(=O)[C@@]2(C)C1CC(=O)[C@]1(C)C2CC[C@@]2(C)[C@H](c3ccoc3)OC(=O)C3OC321 (stereo partly drawn)	0.979
CC1O[C@@H](Oc2c(-c3ccc(O)c(O)c3)oc3cc(O)cc(O)c3c2=O)[C@H](O)[C@H](O)[C@H]1O (stereo partly drawn)	0.988
CCOCN(C(=O)CCl)c1c(C)cccc1CC	0.98
COc1ccc2ccc(=O)oc2c1	0.999
N#Cc1nn(-c2c(Cl)cc(C(F)(F)F)cc2Cl)c(N)c1S(=O)C(F)(F)F (stereo not drawn)	0.968
O=c1c(O)c(-c2ccc(O)cc2O)oc2cc(O)cc(O)c12	0.973
CC1(C)C(=O)C=C[C@@]2(C)C1CC(=O)[C@]1(C)C2CC[C@@]2(C)[C@H](c3ccoc3)OC(=O)[C@H]3O[C@]321 (stereo partly drawn)	0.995
O=c1ccc2c(O)c3ccoc3cc2o1	0.998
Oc1cc2c(cc1O)C1c3ccc(O)c(O)c3OCC1(O)C2 (stereo not drawn)	0.98
COc1ccc(-c2cc(=O)c3c(O)cc(O[C@@H]4O[C@H](CO[C@H]5O[C@H](C)[C@@H](O)[C@H](O)[C@@H]5O)[C@@H](O)[C@H](O)[C@H]4O)cc3o2)cc1O	1.02
COc1c2ccoc2cc2oc(=O)ccc12	0.983
CCCCCCCCCCCC1=C(O)C(=O)C=C(O)C1=O	0.605
C[C@@H]1CC[C@@]2(OC1)OC1CC3C4CC=C5C[C@@H](O)CC[C@]5(C)C4CC[C@]3(C)C1[C@@H]2C (stereo partly drawn)	0.986
CC1(C)C2CC(=O)[C@]3(C)C(CC[C@@]4(C)[C@H](c5ccoc5)OC(=O)[C@H]5O[C@]543)[C@@]2(C)C(=O)C[C@H]1O (stereo partly drawn)	1.01
C[C@@H]1O[C@@H](OC[C@H]2OC(Oc3c(-c4ccc(O)c(O)c4)oc4cc(O)cc(O)c4c3=O)[C@H](O)[C@@H](O)[C@@H]2O)[C@H](O)[C@H](O)[C@H]1O (stereo partly drawn)	0.985
C=C1CCC2(OC1)OC1CC3C4CC=C5CC(O)CC(O)C5(C)C4CCC3(C)C1C2C (stereo not drawn)	0.966
CC1CC[C@@]2(OC1)O[C@H]1CC3C4CC[C@@H]5C[C@@H](O)CC[C@]5(C)C4CC[C@]3(C)[C@H]1[C@@H]2C (stereo partly drawn)	1.03
